B1: C-terminal octapeptide of Hsp70 (GPTIEEVD) [not stated] / TPR domain of AtToc64 with a C-terminal hexa-histidine tag (AtToc64_TPR-H6) [Arabidopsis thaliana] (parent complex)
chain 1: GPTIEEVD
chain 2: AEIAKEKGNQAFKEKLWQKAIGLYSEAIKLSDNNATYYSNRAAAYLELGGFLQAEEDCTKAITLDKKNVKAYLRRGTAREMLGDCKGAIEDFRYALVLEPNNKRASLSAERLRKFQ

Variants of: B1
Test: ITC; parent: 2.3e+05 nM
assay.endpoint: pKd
The value called pKd is obtained by taking minus log10 of the concentration in mol/L.

Enquiry: Quick one: pKd of chain 1 GPTAEEVD ?
Return: 2.34
